System: OVCAR-8
Procedure Text: NCI tumour cell line growth inhibition, 48 h
The source made the active and inactive calls. Rule as the data show it: active = GI50 up to about 1.1 µM and inactive = higher.
Classes used: Yes (active), No (inactive)

Compound	Subject Of Test	Group
COc1ccc(/C=C2\CCC(C)c3c2nc(N)c(C#N)c3-c2ccc(OC)c(OC)c2)cc1OC (configuration not stated)	OVCAR-8	No
CCN1CCN=c2c3cc(OC)ccc3n3cnc4ccc1c2c43	OVCAR-8	Yes
CC(=O)NNc1nc(C)c(C(=O)/C=C/c2ccc(NC(C)=O)cc2)s1	OVCAR-8	No
NC(=O)/C(=N\NC(=O)C[n+]1ccccc1)C1NC(=O)NC1=O (configuration not stated)	OVCAR-8	No
C[C@]12C=CC(=O)C=C1CC[C@@H]1[C@@H]2CC[C@]2(C)OC(=O)CC[C@@H]12 [TESTOLACTONE]	OVCAR-8	No
CC(=O)/C(=C/n1c(=S)[nH]c2ccccc21)C(=O)Nc1ccccc1C	OVCAR-8	No
CC1(C)CCC[C@@]2(C)C1CC[C@@]1(CO1)[C@@H]2/C=C\C(C=O)CC=O (some centres not stated)	OVCAR-8	No
CC1=C2C(=CO[C@H](C)[C@H]2C)C(O)=C(C(=O)O)C1=O [CITRININ]	OVCAR-8	No
O=C1CC(Nc2ccccc2)c2c(Cl)sc(Cl)c21 (configuration not stated)	OVCAR-8	No
OB(O)c1ccccc1C#Cc1ccccc1B(O)O	OVCAR-8	No
COc1cc(C2c3cc4c(cc3[C@@H](NCCN3CCCCC3)C3COC(=O)[C@H]23)OCO4)cc(OC)c1O (some centres not stated)	OVCAR-8	Yes
COc1ccc(-c2c(C#N)c(N)nc3c2CCS(=O)(=O)c2ccccc2-3)cc1	OVCAR-8	No
CC1(O)/C(=N/O)CC2CC1C2(C)C (configuration not stated)	OVCAR-8	No
C[C@@H]1CCC2C(C)(C)C(/C=C\C=O)C3(C)OC213 (some centres not stated)	OVCAR-8	No
CCN(CC)C(=S)N/N=C/c1cc([N+](=O)[O-])ccc1O	OVCAR-8	No
c1ccc(CSC(SCc2ccccc2)c2ccc3c(c2)OCO3)cc1	OVCAR-8	No
c1ccc(-c2nc(-c3ccccc3)c(-c3ccccc3)[nH]2)cc1	OVCAR-8	No

----------
GI50 values for the compounds below.
System: RXF 393
Procedure Text: NCI tumour cell line growth inhibition, 48 h
Active and inactive are the calls of the source. No stated cut-off is given here; in the data, active = GI50 up to about 1.1 µM and inactive = higher.

Compound	GI50
O=C(O)CCCc1ccc(N(CCCl)CCCl)cc1 [CHLORAMBUCIL]	33.2 µM (inactive)
O=C(Cc1csc(N/N=C2\C(=O)Nc3ccccc32)n1)Nc1ccccc1	62.7 µM (inactive)
N#Cc1ccc(Sc2ccccc2)cc1C#N	33 µM (inactive)
COc1ccc2c(c1)CCN1C3=C(CCC3)C(=O)C[C@@H]21	> 100 µM (inactive)
N/C(=N\c1ccc(Cl)cc1)NS(=O)(=O)c1c(C(F)(F)F)cccc1C(F)(F)F	45.8 µM (inactive)

----------
Form field: GI50 (one value per entry).
System: HCC 2998
Procedure Text: NCI tumour cell line growth inhibition, 48 h
Calls of active or inactive are those of the source. Cut-off read from the data, not from the text of the source: active = GI50 up to about 1.1 µM and inactive = higher.
Measured Parameter: GI50

Compound	Subject Of Test	Result
CSc1ncnc2c1CCN2	HCC 2998	> 10 µM (inactive)
Cc1nn(C(=O)Cc2ccccc2)c2c1C(c1ccccc1)SC(=N)N2 (centres undefined)	HCC 2998	> 100 µM (inactive)
COc1cc(OC)c2nc3occc3c(OC)c2c1	HCC 2998	41.6 µM (inactive)
CC(C)(O)C1COC2=C1C(=O)c1ccccc1C2=O (centres undefined)	HCC 2998	> 100 µM (inactive)

----------
Reported values of GI50 for individual entries
System: LOX IMVI
Procedure Text: NCI tumour cell line growth inhibition, 48 h
Activity calls are given as the source filed them. No stated cut-off is given here; in the data, active = GI50 up to about 1.1 µM and inactive = higher.
Measured Parameter: GI50

Molecule	Result
C[Si](C)(C)CC(N)=O	> 100 µM (inactive)
CC(=O)OC(C)(C)/N=N/c1ccc(Br)cc1	3.09 µM (inactive)
C[C@@H]1C[C@@H]2C(=O)N(c3ccccc3)C(=O)[C@@H]2c2[nH]c3ccc(Br)cc3c21	96.8 µM (inactive)
COc1cc2oc(-c3ccc4c(c3)OCO4)c(OC)c(=O)c2c(OC)c1OC	> 100 µM (inactive)
O=c1[nH]cc(-c2c[nH]c3ccccc23)nc1-c1c[nH]c2ccccc12	11.2 µM (inactive)
[N-]=[N+]=Nc1ccc2c(c1)Sc1ccccc1N2CCCCN1CCN(C(=O)CCNC(=O)Cc2ccc(C(=O)c3ccccc3)cc2)CC1	2.23 µM (inactive)
CN1C(=O)[C@@H]2[C@@H]3c4ccccc4N[C@@H]3c3[nH]c4ccccc4c3[C@@H]2C1=O	20.6 µM (inactive)

----------
Test system: SK-MEL-28
Procedure Text: NCI tumour cell line growth inhibition, 48 h
Active and inactive are the calls of the source. Rule as the data show it: active = GI50 up to about 1.1 µM and inactive = higher.

Compound	Subject Of Test	GI50
O=S(=O)(SCc1ccccc1)C(c1ccccc1)c1ccccc1	SK-MEL-28	48.3 µM (inactive)
Cc1cc(-c2ccccc2)nc(Nc2nc3ccccc3o2)n1	SK-MEL-28	> 100 µM (inactive)
COc1cc2c3c([nH]c2c(OC)c1OC)CCN(Cc1ccccc1)C3	SK-MEL-28	21.6 µM (inactive)
N#CC1=C(N)C(C#N)(C#N)C(c2ccc(F)cc2)C=C1C1CC1 (configuration not stated)	SK-MEL-28	12.4 µM (inactive)
CC1=C/C(=C2/N=C(N(C)C)SS2)C(C)=N1.[O-][Cl+3]([O-])([O-])O	SK-MEL-28	> 100 µM (inactive)
COc1cc(Nc2nc3cc(C(F)(F)F)ccc3nc2-c2ccccc2)cc(OC)c1OC	SK-MEL-28	49.7 µM (inactive)
CC1CN=C(Nc2cccc(C(F)(F)F)c2)S1 (configuration not stated)	SK-MEL-28	> 100 µM (inactive)

----------
Tested on: SNB-19
Procedure Text: NCI tumour cell line growth inhibition, 48 h
The source made the active and inactive calls. Cut-off read from the data, not from the text of the source: active = GI50 up to about 1.1 µM and inactive = higher.
Possible outcomes: active, inactive

Molecule	Group
[N-]=[N+]=Nc1ccc2c(c1)Sc1ccccc1N2CCCCN1CCN(C(=O)CCNC(=O)Cc2ccc(C(=O)c3ccccc3)cc2)CC1	inactive
O=C(CN(c1ccccc1)c1ccccc1)n1nnc2ccccc21	inactive
Cc1nc2sc(CCl)nn2c(=O)c1Cl	inactive
[N-]=[N+]=NC(CCl)c1cn([C@H]2C[C@H](O)[C@@H](CO)O2)c(=O)[nH]c1=O (some centres not stated)	inactive
OC(c1ccccc1)(c1ccccc1)c1ccncc1	inactive
COc1cc2c(/C=C3/C(=O)N(C)c4ccccc43)c(Cl)[nH]c2cc1C	active
c1nc2nc[nH]c(SSc3[nH]cnc4ncnc3-4)c-2n1	inactive
COC(=O)[C@H](C)NC(=O)[C@H](CSC)N1C(=O)N[C@@H](C(C)C)C1=O	inactive
CN(C)c1ccc(C2ON=C(c3ccccc3)N2C23CC4CC(CC(C4)C2)C3)cc1 (configuration not stated)	inactive
CC(C)(C)OC(=O)NC(CSCc1ccc(C(=O)c2ccccc2)cc1)C(=O)N1CCN(CCCCN2c3ccccc3Sc3cc(N=[N+]=[N-])ccc32)CC1 (configuration not stated)	inactive
COc1cc2c(cc1O)[C@H](C)C(c1ccccc1OC)O2 (some centres not stated)	inactive
O=C(C=C1SCCS1)/C=C\c1ccc(Cl)cc1	inactive
CCOC(=O)Oc1cc2c(c(OC)c1OC)-c1ccc(OC)c(=O)cc1C(NC(C)=O)CC2 (configuration not stated)	active
NC(=O)CCSC(CC(=O)c1ccc(Cl)cc1)c1ccc(Cl)cc1 (configuration not stated)	inactive
O=S(=O)(O)c1cccc2c(/N=N/c3c(O)ccc4ccccc34)cccc12	inactive
C=C1C[C@@H]2O[C@H]3[C@H]4[C@@H](C[C@@H](C)[C@@H](OC(C)=O)[C@H]42)[C@@H](C)CO[C@@]3(C)[C@H](OC(=O)CCCCCCC)C[C@H]1O	inactive
COC(=O)C1=CC2CCCC1(O)C(C(C)=O)C2 (configuration not stated)	inactive

----------
Tested on: SW-620
Procedure Text: NCI tumour cell line growth inhibition, 48 h
Where a name gives a salt, the structure may show the parent alone. Active and inactive are the calls of the source. Rule as the data show it: active = GI50 up to about 1.1 µM and inactive = higher.
Outcome codes: active, inactive

Compound	Subject Of Test	Group
COC(=O)C(=O)C(C(=O)C(=O)Nc1ccc([N+](=O)[O-])cc1C#N)c1nc2ccc([N+](=O)[O-])cc2nc1O (stereo not given)	SW-620	inactive
CSc1ncnc2c1CCN2	SW-620	inactive
C(=N\c1nc2cc3sc(/N=C/c4ccccc4)nc3cc2s1)/c1ccccc1	SW-620	inactive
COc1ccc(/C=C/CN(C)CCc2ccccc2)cc1OC	SW-620	inactive
CCOC(=O)C(NC(=O)CC)(Nc1cc(C)on1)C(F)(F)F (stereo not given)	SW-620	inactive
Cc1ccc(SC2C(C)(C)N(C(C)C)P2(=O)N(C(C)C)C(C)C)cc1 (stereo not given)	SW-620	inactive
COc1cc(C(C#N)NNc2nc(C)cc(O)n2)cc(OC)c1OC (stereo not given)	SW-620	inactive
NC(=O)CCSC(CC(=O)c1ccc(Cl)cc1)c1ccc(Cl)cc1 (stereo not given)	SW-620	inactive
[O-][S+]1c2ccccc2NC(c2ccc3ccccc3c2)CC1c1ccccc1 (stereo not given)	SW-620	inactive
COc1ccc(-c2c(C#N)c(N)nc3c2CCS(=O)(=O)c2ccccc2-3)cc1	SW-620	inactive
CN[C@@H](C)[C@@H](O)c1ccccc1 [PSEUDOEPHEDRINE HYDROCHLORIDE]	SW-620	inactive
O=C(CSc1nc2ccc(I)cc2c(=O)n1Cc1ccccc1)NNC(=O)c1ccccc1	SW-620	inactive
CNC(=S)Nc1ccc(OC)c2ccccc12	SW-620	inactive
CCN(CC)CC(C)(C)C(=O)/C=C/c1cccc(/C=C/C(=O)C(C)(C)CN(CC)CC)c1	SW-620	active
COc1cc(C2c3cc4c(cc3[C@@H](NCCN3CCCCC3)C3COC(=O)[C@H]23)OCO4)cc(OC)c1O (stereo not given in full)	SW-620	active
CN(CCSCCN(C)C(=O)OC(C)(C)C)C(=O)OC(C)(C)C	SW-620	inactive
CN1CCCOC(c2ccc(Cl)cc2)O1 (stereo not given)	SW-620	inactive
COC(=O)/C(=N\NC(=S)NN)C(C(=O)OC)C(=O)C(=O)Nc1cccc(C(F)(F)F)c1 (stereo not given)	SW-620	inactive
N#C/C(=C\c1ccc(F)cc1)c1nc2ccccc2c(=O)[nH]1	SW-620	inactive
CN1C(=O)[C@@H]2[C@@H]3c4ccccc4N[C@@H]3c3[nH]c4ccccc4c3[C@@H]2C1=O	SW-620	inactive
